The measurements presented in this section are drawn from patent EP4714939A1.

experiment: in vivo; conditions: cynomolgus monkey, po, 5 mg/kg
quantity: AUC(0-t) (ng·h/mL)

O=C(O)[C@@H](Cc1cccc(S(=O)(=O)N(Cc2ccc(F)c(C[C@H](C(=O)O)[C@H]3CCNC3)c2)Cc2ccc(F)c(C[C@H](C(=O)O)[C@H]3CCNC3)c2)c1)[C@H]1CCNC1: 22100

---

test: in vivo; settings: cynomolgus monkey, iv, 0.5 mg/kg
quantity: AUC(0-t) (ng·h/mL)

O=C(O)[C@@H](Cc1cccc(CN(Cc2cccc(C[C@H](C(=O)O)[C@H]3CCNC3)c2)S(=O)(=O)c2cccc(C[C@H](C(=O)O)[C@H]3CCNC3)c2)c1)[C@H]1CCNC1: 41000
O=C(O)[C@@H](Cc1cccc(CN(CCc2ccccc2C[C@H](C(=O)O)[C@H]2CCNC2)S(=O)(=O)c2cccc(C[C@H](C(=O)O)[C@H]3CCNC3)c2)c1)[C@H]1CCNC1: 33300
